The reported numbers originate from patent US9775844B2.

biological target: PI3K-γ in RAW264.7 macrophages (Mus musculus (Mouse), UniProt Q9JHG7); experiment: Raw264.7 p110 γ assay (PI3K-γ selective cellular assay, C5a-stimulated phospho-AKT); type: cell-based; settings: phospho-AKT; read-out: Raw264.7 p110 γ assay IC50
Sequence (Q9JHG7 whole entry): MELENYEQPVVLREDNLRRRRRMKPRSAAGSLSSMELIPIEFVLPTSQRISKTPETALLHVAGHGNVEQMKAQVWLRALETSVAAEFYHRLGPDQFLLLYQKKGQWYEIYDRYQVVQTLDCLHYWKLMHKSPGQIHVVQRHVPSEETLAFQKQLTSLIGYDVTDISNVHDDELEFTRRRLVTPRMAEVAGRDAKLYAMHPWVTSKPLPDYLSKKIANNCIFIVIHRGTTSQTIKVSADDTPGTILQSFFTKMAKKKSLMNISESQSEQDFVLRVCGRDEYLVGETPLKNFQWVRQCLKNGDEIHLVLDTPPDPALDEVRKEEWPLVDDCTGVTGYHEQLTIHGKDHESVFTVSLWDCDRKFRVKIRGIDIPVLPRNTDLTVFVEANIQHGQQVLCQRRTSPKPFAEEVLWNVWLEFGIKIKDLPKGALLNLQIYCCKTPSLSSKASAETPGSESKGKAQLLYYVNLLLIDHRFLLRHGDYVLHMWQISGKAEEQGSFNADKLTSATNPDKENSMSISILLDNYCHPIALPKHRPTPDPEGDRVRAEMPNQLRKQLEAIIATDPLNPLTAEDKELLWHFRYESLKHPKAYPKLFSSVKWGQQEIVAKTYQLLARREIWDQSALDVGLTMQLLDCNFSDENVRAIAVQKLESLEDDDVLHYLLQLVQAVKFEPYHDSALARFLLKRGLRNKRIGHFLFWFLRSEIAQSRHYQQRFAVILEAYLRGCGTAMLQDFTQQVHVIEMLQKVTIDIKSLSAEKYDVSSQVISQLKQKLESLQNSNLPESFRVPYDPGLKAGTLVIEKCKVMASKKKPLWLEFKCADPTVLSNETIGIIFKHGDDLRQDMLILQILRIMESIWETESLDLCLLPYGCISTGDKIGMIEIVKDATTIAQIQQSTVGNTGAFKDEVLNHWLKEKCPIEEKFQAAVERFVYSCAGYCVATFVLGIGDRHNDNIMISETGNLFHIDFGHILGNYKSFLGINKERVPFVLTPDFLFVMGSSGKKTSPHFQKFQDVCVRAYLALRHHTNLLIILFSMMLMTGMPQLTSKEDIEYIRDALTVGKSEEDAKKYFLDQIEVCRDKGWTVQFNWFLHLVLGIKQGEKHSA
Entries and their measured IC50 follow.
readout: IC50

INSERT INTO assay_data (chem_smiles, measurement_target, test_result) VALUES
  ('C[C@H](NC(=O)c1c(N)nn2cccnc12)c1cc2cccc(C#CC3CCN(S(C)(=O)=O)CC3)c2c(=O)n1-c1ccccc1', 'PI3K-γ in RAW264.7 macrophages (Mus musculus (Mouse), UniProt Q9JHG7)', '1 to 50 nM'),
  ('C[C@H](NC(=O)c1c(N)nn2cccnc12)c1cc2cccc(C#CC3CCCC3)c2c(=O)n1-c1ccccc1', 'PI3K-γ in RAW264.7 macrophages (Mus musculus (Mouse), UniProt Q9JHG7)', '100 to 10000 nM'),
  ('C[C@H](NC(=O)c1c(N)nn2cccnc12)c1cc2cccc(C#CC(C)(C)N)c2c(=O)n1-c1ccccc1', 'PI3K-γ in RAW264.7 macrophages (Mus musculus (Mouse), UniProt Q9JHG7)', '100 to 10000 nM'),
  ('C[C@H](NC(=O)c1c(N)nn2cccnc12)c1nc2cccc(C#Cc3cnn(C)c3)c2c(=O)n1C', 'PI3K-γ in RAW264.7 macrophages (Mus musculus (Mouse), UniProt Q9JHG7)', '1 to 50 nM'),
  ('C[C@H](NC(=O)c1c(N)nn2cccnc12)c1cc2cccc(C#CC3CC3)c2c(=O)n1C1CC1', 'PI3K-γ in RAW264.7 macrophages (Mus musculus (Mouse), UniProt Q9JHG7)', '1 to 50 nM'),
  ('C#Cc1cccc2nc([C@H](C)NC(=O)c3c(N)nn4cccnc34)n(-c3ccc(F)cc3)c(=O)c12', 'PI3K-γ in RAW264.7 macrophages (Mus musculus (Mouse), UniProt Q9JHG7)', '1 to 50 nM'),
  ('Cc1nc(C#Cc2cccc3cc([C@H](C)NC(=O)c4c(N)nn5cccnc45)n(-c4ccccc4)c(=O)c23)cs1', 'PI3K-γ in RAW264.7 macrophages (Mus musculus (Mouse), UniProt Q9JHG7)', '1 to 50 nM');
